System: SW-620
Assay: Cytotoxicity against human SW620 cells assessed as cell growth at 10 uM after 48 hrs by SRB assay relative to control
Type: functional
Conditions: SW-620, 48 h, read-out: Activity
// reported growth at 10 µM for each item listed

{"CHEMICAL SMILES": "CC(C)=CCC[C@H](C)c1ccc(C)c2c1OCN(CC1CCNCC1)C2", "UNIT OF MEASUREMENT": "%", "growth at 10 µM": 28}
{"CHEMICAL SMILES": "CC(C)=CCC[C@H](C)c1ccc(C)c(CO)c1O", "UNIT OF MEASUREMENT": "%", "growth at 10 µM": 118}
{"CHEMICAL SMILES": "CC(C)=CCC[C@H](C)c1ccc(C)c(CNCC2CCNCC2)c1O", "UNIT OF MEASUREMENT": "%", "growth at 10 µM": 86}
{"CHEMICAL SMILES": "CC(C)=CCC[C@H](C)c1ccc(C)c2c1OCN(CCO)C2", "UNIT OF MEASUREMENT": "%", "growth at 10 µM": 100}
{"CHEMICAL SMILES": "CC(C)=CCC[C@H](C)c1ccc(C)cc1O", "UNIT OF MEASUREMENT": "%", "growth at 10 µM": 114}
{"CHEMICAL SMILES": "CC(C)=CCC[C@H](C)c1ccc(C)c(CNCCO)c1O", "UNIT OF MEASUREMENT": "%", "growth at 10 µM": 100}
{"CHEMICAL SMILES": "CC(C)=CCC[C@H](C)c1ccc(C)c(CNCCCCCO)c1O", "UNIT OF MEASUREMENT": "%", "growth at 10 µM": 91.9}
{"CHEMICAL SMILES": "CC(C)=CCC[C@H](C)c1ccc(C)c(CNCCCCC(=O)O)c1O", "UNIT OF MEASUREMENT": "%", "growth at 10 µM": 98.3}
{"CHEMICAL SMILES": "COc1ccc(CCN2COc3c([C@@H](C)CCC=C(C)C)ccc(C)c3C2)cc1OC", "UNIT OF MEASUREMENT": "%", "growth at 10 µM": -59}
{"CHEMICAL SMILES": "CC(C)=CCC[C@H](C)c1ccc(C)c2c1OCN(CCCCCO)C2", "UNIT OF MEASUREMENT": "%", "growth at 10 µM": 94.9}
{"CHEMICAL SMILES": "COc1ccc(CCNCc2c(C)ccc([C@@H](C)CCC=C(C)C)c2O)cc1OC", "UNIT OF MEASUREMENT": "%", "growth at 10 µM": 84.9}
{"CHEMICAL SMILES": "CC(C)=CCC[C@H](C)c1ccc(C)c2c1OCN(CCCCC(=O)O)C2", "UNIT OF MEASUREMENT": "%", "growth at 10 µM": 101}

###

Tested on: MDA-MB-435
Assay: Cytotoxicity against human MDA-MB-435 cells assessed as cell growth at 10 uM after 48 hrs by SRB assay relative to control
Format: functional
Conditions: MDA-MB-435, 48 h, read-out: Activity
# reported growth at 10 µM; entries follow
MEASURED PARAMETER: growth at 10 µM (%)

{"CHEMICAL SMILES": "CC(C)=CCC[C@H](C)c1ccc(C)c(CNCC2CCNCC2)c1O", "TGT": "MDA-MB-435", "UNIT OF MEASUREMENT": "%", "NUMERIC READOUT": 13.9}
{"CHEMICAL SMILES": "CC(C)=CCC[C@H](C)c1ccc(C)c2c1OCN(CCCCC(=O)O)C2", "TGT": "MDA-MB-435", "UNIT OF MEASUREMENT": "%", "NUMERIC READOUT": 99.4}
{"CHEMICAL SMILES": "COc1ccc(CCN2COc3c([C@@H](C)CCC=C(C)C)ccc(C)c3C2)cc1OC", "TGT": "MDA-MB-435", "UNIT OF MEASUREMENT": "%", "NUMERIC READOUT": 3}
{"CHEMICAL SMILES": "CC(C)=CCC[C@H](C)c1ccc(C)c(CNCCO)c1O", "TGT": "MDA-MB-435", "UNIT OF MEASUREMENT": "%", "NUMERIC READOUT": 95.8}
{"CHEMICAL SMILES": "CC(C)=CCC[C@H](C)c1ccc(C)c(CNCCCCC(=O)O)c1O", "TGT": "MDA-MB-435", "UNIT OF MEASUREMENT": "%", "NUMERIC READOUT": 96.1}
{"CHEMICAL SMILES": "CC(C)=CCC[C@H](C)c1ccc(C)c(CO)c1O", "TGT": "MDA-MB-435", "UNIT OF MEASUREMENT": "%", "NUMERIC READOUT": 108}
{"CHEMICAL SMILES": "COc1ccc(CCNCc2c(C)ccc([C@@H](C)CCC=C(C)C)c2O)cc1OC", "TGT": "MDA-MB-435", "UNIT OF MEASUREMENT": "%", "NUMERIC READOUT": 97.8}
{"CHEMICAL SMILES": "CC(C)=CCC[C@H](C)c1ccc(C)c2c1OCN(CC1CCNCC1)C2", "TGT": "MDA-MB-435", "UNIT OF MEASUREMENT": "%", "NUMERIC READOUT": 14.7}
{"CHEMICAL SMILES": "CC(C)=CCC[C@H](C)c1ccc(C)c(CNCCCCCO)c1O", "TGT": "MDA-MB-435", "UNIT OF MEASUREMENT": "%", "NUMERIC READOUT": 95}
{"CHEMICAL SMILES": "CC(C)=CCC[C@H](C)c1ccc(C)c2c1OCN(CCO)C2", "TGT": "MDA-MB-435", "UNIT OF MEASUREMENT": "%", "NUMERIC READOUT": 101}
{"CHEMICAL SMILES": "CC(C)=CCC[C@H](C)c1ccc(C)cc1O", "TGT": "MDA-MB-435", "UNIT OF MEASUREMENT": "%", "NUMERIC READOUT": 100}
{"CHEMICAL SMILES": "CC(C)=CCC[C@H](C)c1ccc(C)c2c1OCN(CCCCCO)C2", "TGT": "MDA-MB-435", "UNIT OF MEASUREMENT": "%", "NUMERIC READOUT": 97.1}
